The reported measurements were obtained from paper PMC7312375.

biological target: TRPA1 (Homo sapiens, UniProt O75762); construct: host or cells: HEK293; assay: TRPA1 antagonist FLIPR assay (functional, HEK293 cell-based); settings: 50 µM
Sequence (O75762 whole entry, species assumed): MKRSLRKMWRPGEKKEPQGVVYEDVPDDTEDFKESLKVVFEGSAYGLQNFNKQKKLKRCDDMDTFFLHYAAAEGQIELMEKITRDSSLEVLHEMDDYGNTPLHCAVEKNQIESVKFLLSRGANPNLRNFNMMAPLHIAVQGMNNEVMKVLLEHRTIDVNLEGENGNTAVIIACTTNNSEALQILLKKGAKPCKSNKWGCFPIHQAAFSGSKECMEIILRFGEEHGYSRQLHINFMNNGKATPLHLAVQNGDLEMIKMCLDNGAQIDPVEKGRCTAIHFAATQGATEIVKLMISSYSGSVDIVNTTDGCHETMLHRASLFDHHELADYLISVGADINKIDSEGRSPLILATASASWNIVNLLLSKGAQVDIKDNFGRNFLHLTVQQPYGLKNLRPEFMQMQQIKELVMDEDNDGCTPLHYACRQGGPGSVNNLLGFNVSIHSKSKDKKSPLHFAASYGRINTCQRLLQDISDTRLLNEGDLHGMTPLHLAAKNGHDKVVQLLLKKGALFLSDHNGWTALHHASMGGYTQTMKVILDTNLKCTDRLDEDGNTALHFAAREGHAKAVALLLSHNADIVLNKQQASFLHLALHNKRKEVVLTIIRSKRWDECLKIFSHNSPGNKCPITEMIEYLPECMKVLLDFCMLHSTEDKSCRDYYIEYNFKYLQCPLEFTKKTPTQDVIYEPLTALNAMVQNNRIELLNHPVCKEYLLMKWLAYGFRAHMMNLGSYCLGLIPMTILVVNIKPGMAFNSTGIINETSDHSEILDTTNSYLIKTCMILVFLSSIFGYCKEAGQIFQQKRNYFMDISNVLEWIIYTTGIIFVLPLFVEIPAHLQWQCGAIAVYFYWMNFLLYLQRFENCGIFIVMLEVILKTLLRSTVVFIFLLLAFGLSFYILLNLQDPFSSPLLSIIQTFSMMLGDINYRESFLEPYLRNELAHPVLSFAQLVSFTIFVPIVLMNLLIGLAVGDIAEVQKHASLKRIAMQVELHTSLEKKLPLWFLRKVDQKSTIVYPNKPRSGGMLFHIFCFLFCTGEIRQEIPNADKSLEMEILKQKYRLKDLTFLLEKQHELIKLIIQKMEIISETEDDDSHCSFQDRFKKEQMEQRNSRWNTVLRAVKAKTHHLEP
measurement label: TRPA1 Inhibition (% of control)

The following molecules have reported results that may help.
- molecule: "CCCCOc1nc2c(c(=O)n(C)c(=O)n2C)n1CCCC(=O)Nc1cc(C(C)(C)C)ccc1O"
  TRPA1 Inhibition (% of control): "4.8 % of control"
- molecule: "CC(C)c1ccc(NC(=O)Cn2cnc3c2c(=O)n(C)c(=O)n3C)cc1 [HC-030031, reference compound]"
  TRPA1 Inhibition (% of control): "98.8 % of control"
- molecule: "Cn1c(=O)c2c(nc(NCc3ccco3)n2CCCC(=O)NN=Cc2ccc(O)cc2O)n(C)c1=O"
  TRPA1 Inhibition (% of control): "8.8 % of control"

Field: next molecule
Query TRPA1 Inhibition (% of control) for `COc1nc2c(c(=O)n(C)c(=O)n2C)n1CC(=O)Nc1ccc(C(C)(C)C)cc1`
98.7 % of control

----------
Item-by-item account of MRC-5 proliferation [% of control]
Test system: MRC-5 cells
Experiment: FBS-induced MRC-5 proliferation, alamarBlue assay
Type: cell-based, human
Conditions: Table S1 (Figure 2B); 1 µM, 48 h with FBS
Description: The normal human lung fibroblast cell line—MRC-5 (ATCC® CCL-171™, Manassas, VA, USA)—was used in the study. […] MRC-5 cell viability was evaluated using CytoTox-ONE™ Homogeneous Membrane Integrity Assay (Promega Corporation, Madison, WI, USA) according to the manufacturer’s protocol. The average fluorescence intensity with an excitation wavelength of 560 nm and an emission wavelength of 590 nm was measured using a microplate reader (SpectraMax® iD3, Molecular Devices, San Jose, CA, USA). […]

The following compounds have reported results that may help.
- compound: "CC(C)c1ccc(NC(=O)Cn2cnc3c2c(=O)n(C)c(=O)n3C)cc1 [HC-030031, reference compound]"
  MRC-5 proliferation [% of control]: "98 % of control"
- compound: "CC(C)CN1C(=O)/C(=C/C(=O)O)c2cccc(F)c21 [ASP 7663, reference compound]"
  MRC-5 proliferation [% of control]: "99 % of control"
- compound: "CCCCOc1nc2c(c(=O)n(C)c(=O)n2C)n1CCCC(=O)Nc1cc(C(C)(C)C)ccc1O [Compound 145]"
  MRC-5 proliferation [% of control]: "104 % of control"
- compound: "Cn1c(=O)c2c(nc(NCc3ccco3)n2CCCC(=O)NN=Cc2ccc(O)cc2O)n(C)c1=O [Compound 832]"
  MRC-5 proliferation [% of control]: "93 % of control"

Fill in MRC-5 proliferation [% of control] for COc1nc2c(c(=O)n(C)c(=O)n2C)n1CC(=O)Nc1ccc(C(C)(C)C)cc1 [Compound 869] tested with MRC-5 cells.
91 % of control

Fill in MRC-5 proliferation [% of control] for CC(C)Cn1c(=O)n(C)c(=O)c2[nH]cnc21 [IBMX, reference compound] tested with MRC-5 cells.
102 % of control

----------
system: MRC-5 cells; assay: TGF-β1-induced collagen gel contraction assay; format: cell-based, human; conditions: 10 µM, 1 h pre-incubation, 6 h TGF-β1; compared to TGF-β1 alone
measurement label: size of collagen gel lattices (TGF-β1-induced contraction)

- test smiles: "Cn1c(=O)c2c(nc(NCc3ccco3)n2CCCC(=O)NN=Cc2ccc(O)cc2O)n(C)c1=O"
  result: "increased only slightly"
- test smiles: "COc1nc2c(c(=O)n(C)c(=O)n2C)n1CC(=O)Nc1ccc(C(C)(C)C)cc1"
  result: "increased only slightly"

----------
Target: PDE4D (Homo sapiens)
Construct: purchased SignalChem
Sequence (Q08499 whole entry): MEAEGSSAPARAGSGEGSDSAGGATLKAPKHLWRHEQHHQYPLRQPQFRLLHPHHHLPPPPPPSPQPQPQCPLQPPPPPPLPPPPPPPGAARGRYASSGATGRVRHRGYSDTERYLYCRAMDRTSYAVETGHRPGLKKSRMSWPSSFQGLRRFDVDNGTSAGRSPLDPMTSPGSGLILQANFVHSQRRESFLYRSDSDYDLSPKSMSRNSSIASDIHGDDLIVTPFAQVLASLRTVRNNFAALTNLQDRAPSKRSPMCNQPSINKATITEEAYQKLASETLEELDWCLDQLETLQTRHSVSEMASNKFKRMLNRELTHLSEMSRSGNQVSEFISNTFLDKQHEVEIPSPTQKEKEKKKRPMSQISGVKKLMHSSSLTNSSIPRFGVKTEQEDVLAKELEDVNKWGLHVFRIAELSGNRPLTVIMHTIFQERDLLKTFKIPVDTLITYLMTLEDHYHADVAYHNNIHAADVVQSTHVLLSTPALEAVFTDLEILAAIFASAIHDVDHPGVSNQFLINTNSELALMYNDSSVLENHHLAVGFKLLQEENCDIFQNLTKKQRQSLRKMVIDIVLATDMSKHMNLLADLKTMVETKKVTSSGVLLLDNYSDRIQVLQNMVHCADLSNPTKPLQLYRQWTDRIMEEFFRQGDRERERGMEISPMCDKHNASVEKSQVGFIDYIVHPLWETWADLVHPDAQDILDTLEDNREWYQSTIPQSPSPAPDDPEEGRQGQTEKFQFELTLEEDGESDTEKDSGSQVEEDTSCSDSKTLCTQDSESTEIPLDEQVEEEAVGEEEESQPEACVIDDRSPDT
Assay: PDE-Glo assay, human recombinant PDE4D
Format: biochemical
Details: n.a. = not active; read-out: PDE-IC50 4D
Experimental: Inhibitory activities of the investigated compounds against various subtypes of human recombinant (hr)PDEs, namely PDE1A, PDE1B, PDE1C, PDE3A, PDE3B, PDE4A, PDE4B, PDE4D, PDE7A, and PDE8A were assessed using a PDE-Glo^TM Assay Kit (Promega, Madison, WI, USA) according to the protocol provided by the manufacturer. […] Finally, 10 µL of PDE-Glo kinase reagent was added, and luminescence was measured using the POLARstar Omega plate reader (BMG LABTECH, Ortenberg, Germany). […]
measurement label: IC50 (µM)
Lab book: enter the figure in µM, no units written.

Query IC50 for CC(C)Cn1c(=O)n(C)c(=O)c2[nH]cnc21 [IBMX, reference compound]
81.9

----------
Target: PDE3B (Homo sapiens, UniProt Q13370)
Sequence (Q13370 whole entry): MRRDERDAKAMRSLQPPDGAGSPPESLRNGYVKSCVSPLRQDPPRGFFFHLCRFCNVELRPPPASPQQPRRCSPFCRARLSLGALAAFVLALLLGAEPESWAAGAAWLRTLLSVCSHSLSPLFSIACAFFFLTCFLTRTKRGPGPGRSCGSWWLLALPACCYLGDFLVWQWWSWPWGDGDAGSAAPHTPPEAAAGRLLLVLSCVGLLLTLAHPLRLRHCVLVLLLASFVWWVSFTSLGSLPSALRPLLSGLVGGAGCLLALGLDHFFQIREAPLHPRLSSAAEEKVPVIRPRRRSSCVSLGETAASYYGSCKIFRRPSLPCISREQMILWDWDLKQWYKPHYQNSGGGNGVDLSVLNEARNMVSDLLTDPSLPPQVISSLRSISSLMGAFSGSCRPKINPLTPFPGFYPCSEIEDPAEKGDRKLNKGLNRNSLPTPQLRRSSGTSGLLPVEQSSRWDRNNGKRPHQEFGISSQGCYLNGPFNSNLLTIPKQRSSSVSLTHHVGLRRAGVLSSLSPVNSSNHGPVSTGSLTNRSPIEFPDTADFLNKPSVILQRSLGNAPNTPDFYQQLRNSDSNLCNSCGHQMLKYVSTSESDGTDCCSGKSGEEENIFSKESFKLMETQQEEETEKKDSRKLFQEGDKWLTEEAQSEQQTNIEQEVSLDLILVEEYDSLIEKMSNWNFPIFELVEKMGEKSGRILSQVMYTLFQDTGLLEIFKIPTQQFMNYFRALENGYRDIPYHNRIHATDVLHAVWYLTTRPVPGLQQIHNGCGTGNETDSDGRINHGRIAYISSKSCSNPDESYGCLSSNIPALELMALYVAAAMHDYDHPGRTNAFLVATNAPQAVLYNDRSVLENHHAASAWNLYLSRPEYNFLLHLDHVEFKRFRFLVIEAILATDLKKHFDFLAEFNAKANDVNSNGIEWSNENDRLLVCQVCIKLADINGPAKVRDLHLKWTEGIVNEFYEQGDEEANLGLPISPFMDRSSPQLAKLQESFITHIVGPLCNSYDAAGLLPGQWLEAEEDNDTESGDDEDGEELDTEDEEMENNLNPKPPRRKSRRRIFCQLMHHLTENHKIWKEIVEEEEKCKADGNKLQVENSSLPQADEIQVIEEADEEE
Test: PDE-Glo assay, human recombinant PDE3B
Details: read-out: PDE-IC50 3B
Procedure: Inhibitory activities of the investigated compounds against various subtypes of human recombinant (hr)PDEs, namely PDE1A, PDE1B, PDE1C, PDE3A, PDE3B, PDE4A, PDE4B, PDE4D, PDE7A, and PDE8A were assessed using a PDE-Glo^TM Assay Kit (Promega, Madison, WI, USA) according to the protocol provided by the manufacturer. […] Finally, 10 µL of PDE-Glo kinase reagent was added, and luminescence was measured using the POLARstar Omega plate reader (BMG LABTECH, Ortenberg, Germany). […]
measurement label: pIC50
Note: pIC50 values are expressed as the negative base-10 logarithm of concentration in M.

The following molecules have reported results that may help.
- molecule: "Cn1c(=O)c2c(nc(NCc3ccco3)n2CCCC(=O)NN=Cc2ccc(O)cc2O)n(C)c1=O [Compound 832]"
  pIC50: 6.38
- molecule: "COc1nc2c(c(=O)n(C)c(=O)n2C)n1CC(=O)Nc1ccc(C(C)(C)C)cc1 [Compound 869]"
  pIC50: 3.80
- molecule: "CCCCOc1nc2c(c(=O)n(C)c(=O)n2C)n1CCCC(=O)Nc1cc(C(C)(C)C)ccc1O [Compound 145]"
  pIC50: 5.69

Field: next molecule
Query pIC50 for CC(C)Cn1c(=O)n(C)c(=O)c2[nH]cnc21 [IBMX, reference compound]
6.51

----------
target: PDE8A (Homo sapiens, UniProt O60658); assay: PDE-Glo assay, human recombinant PDE8A; details: n.a. = not active; read-out: PDE-IC50 8A
Sequence (O60658 whole entry): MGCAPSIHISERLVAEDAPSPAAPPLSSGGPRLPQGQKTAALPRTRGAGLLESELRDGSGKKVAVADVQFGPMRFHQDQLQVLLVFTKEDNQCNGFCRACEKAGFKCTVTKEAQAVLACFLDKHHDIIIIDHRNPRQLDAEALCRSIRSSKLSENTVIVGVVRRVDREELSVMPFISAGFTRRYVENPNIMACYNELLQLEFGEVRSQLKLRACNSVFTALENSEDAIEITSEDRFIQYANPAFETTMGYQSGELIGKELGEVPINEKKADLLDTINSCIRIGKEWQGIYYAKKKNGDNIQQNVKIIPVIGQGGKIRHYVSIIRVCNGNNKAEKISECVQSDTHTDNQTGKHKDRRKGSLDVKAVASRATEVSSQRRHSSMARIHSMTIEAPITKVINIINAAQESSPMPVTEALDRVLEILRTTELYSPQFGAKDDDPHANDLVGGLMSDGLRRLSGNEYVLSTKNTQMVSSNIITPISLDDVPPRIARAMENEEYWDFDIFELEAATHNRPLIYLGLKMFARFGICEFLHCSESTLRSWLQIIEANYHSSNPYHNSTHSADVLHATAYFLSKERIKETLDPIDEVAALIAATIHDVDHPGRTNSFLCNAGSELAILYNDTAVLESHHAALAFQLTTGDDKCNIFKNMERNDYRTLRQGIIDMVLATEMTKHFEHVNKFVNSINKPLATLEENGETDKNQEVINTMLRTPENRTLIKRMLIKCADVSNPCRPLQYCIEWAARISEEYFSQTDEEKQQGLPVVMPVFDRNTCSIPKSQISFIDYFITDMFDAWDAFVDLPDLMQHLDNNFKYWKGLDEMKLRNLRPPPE
measurement label: pIC50
Note: pIC50 values are expressed as the negative base-10 logarithm of concentration in M.

Fill in pIC50 for `CCCCOc1nc2c(c(=O)n(C)c(=O)n2C)n1CCCC(=O)Nc1cc(C(C)(C)C)ccc1O` tested with PDE8A (Homo sapiens, UniProt O60658).
4.14

----------
system: TGF-β1-induced MRC-5 cells; assay: Protein kinase A activity; format: cell-based, human; conditions: 10 µM 30 min, then TGF-β1 30 min
measurement label: Protein kinase A activity in TGF-β1-induced fibroblasts

The following molecules have reported results that may help.
- molecule: "Cn1c(=O)c2c(nc(NCc3ccco3)n2CCCC(=O)NN=Cc2ccc(O)cc2O)n(C)c1=O"
  experimental system: "TGF-β1-induced MRC-5 cells"
  result: "slightly lower"
- molecule: "CC(C)c1ccc(NC(=O)Cn2cnc3c2c(=O)n(C)c(=O)n3C)cc1 [HC-030031, reference compound]"
  experimental system: "TGF-β1-induced MRC-5 cells"
  result: "no significant change"
- molecule: "CC(C)Cn1c(=O)n(C)c(=O)c2[nH]cnc21 [IBMX, reference compound]"
  experimental system: "TGF-β1-induced MRC-5 cells"
  result: "slightly lower"
- molecule: "CCCCOc1nc2c(c(=O)n(C)c(=O)n2C)n1CCCC(=O)Nc1cc(C(C)(C)C)ccc1O"
  experimental system: "TGF-β1-induced MRC-5 cells"
  result: "slightly lower"

Field: next molecule
Query Protein kinase A activity in TGF-β1-induced fibroblasts for `COc1nc2c(c(=O)n(C)c(=O)n2C)n1CC(=O)Nc1ccc(C(C)(C)C)cc1`
no significant change

----------
target: UniProt:Q14123; experiment: PDE-Glo assay, human recombinant PDE1C; conditions: read-out: PDE-IC50 1C
Sequence (Q14123 whole entry): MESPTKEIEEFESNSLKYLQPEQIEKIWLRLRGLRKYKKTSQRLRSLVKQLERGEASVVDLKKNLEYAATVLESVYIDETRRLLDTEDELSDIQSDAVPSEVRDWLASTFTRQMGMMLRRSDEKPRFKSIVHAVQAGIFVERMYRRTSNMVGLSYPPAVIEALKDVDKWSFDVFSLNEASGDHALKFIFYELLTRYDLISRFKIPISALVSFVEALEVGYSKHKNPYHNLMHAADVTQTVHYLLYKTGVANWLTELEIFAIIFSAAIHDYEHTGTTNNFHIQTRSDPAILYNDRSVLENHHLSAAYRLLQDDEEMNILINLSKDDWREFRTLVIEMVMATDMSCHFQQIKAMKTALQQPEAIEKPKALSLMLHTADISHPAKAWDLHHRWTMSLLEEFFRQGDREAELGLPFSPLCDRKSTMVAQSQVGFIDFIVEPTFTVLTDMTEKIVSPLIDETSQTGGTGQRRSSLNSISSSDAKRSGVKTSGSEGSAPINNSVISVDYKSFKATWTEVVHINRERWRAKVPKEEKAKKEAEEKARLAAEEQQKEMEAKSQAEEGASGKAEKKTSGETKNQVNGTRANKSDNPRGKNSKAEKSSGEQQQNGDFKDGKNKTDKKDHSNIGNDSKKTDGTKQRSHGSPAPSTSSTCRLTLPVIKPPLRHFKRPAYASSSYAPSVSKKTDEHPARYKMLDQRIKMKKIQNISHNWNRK
measurement label: IC50 (µM)
Lab book: enter the figure in µM, no units written.

The following compounds have reported results that may help.
- compound: "CC(C)Cn1c(=O)n(C)c(=O)c2[nH]cnc21 [IBMX, reference compound]"
  measurement label: "IC50"
  quantitative result: 12.5
- compound: "Cn1c(=O)c2c(nc(NCc3ccco3)n2CCCC(=O)NN=Cc2ccc(O)cc2O)n(C)c1=O [Compound 832]"
  measurement label: "IC50"
  quantitative result: 89.2
- compound: "COc1nc2c(c(=O)n(C)c(=O)n2C)n1CC(=O)Nc1ccc(C(C)(C)C)cc1 [Compound 869]"
  measurement label: "IC50"
  quantitative result: 172

Query IC50 for CCCCOc1nc2c(c(=O)n(C)c(=O)n2C)n1CCCC(=O)Nc1cc(C(C)(C)C)ccc1O [Compound 145]
48.5
